# system-tested: 5-HT1A serotonin receptor subtype (Rattus norvegicus, UniProt P19327)
# Construct: from tissue
# Sequence (P19327 1-422): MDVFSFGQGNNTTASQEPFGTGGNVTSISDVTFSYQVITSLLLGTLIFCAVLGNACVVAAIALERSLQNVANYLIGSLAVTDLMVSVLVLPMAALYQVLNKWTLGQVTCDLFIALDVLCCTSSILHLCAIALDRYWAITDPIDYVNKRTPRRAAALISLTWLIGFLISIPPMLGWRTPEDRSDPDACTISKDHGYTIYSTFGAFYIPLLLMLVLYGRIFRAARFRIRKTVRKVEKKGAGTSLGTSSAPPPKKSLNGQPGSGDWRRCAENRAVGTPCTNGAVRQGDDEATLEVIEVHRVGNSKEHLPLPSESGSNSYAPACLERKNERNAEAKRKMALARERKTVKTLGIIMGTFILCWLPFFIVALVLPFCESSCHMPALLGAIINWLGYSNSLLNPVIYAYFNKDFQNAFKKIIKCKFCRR
# method-description: Displacement of 3H-8-OH DPAT from the 5-HT1A serotonin receptor subtype (Hall et al.)
# Format: binding
# measurement-setup: calculated from appropriate IC50 values; 3H-8-OH DPAT; read-out: Ki (Affinity for 5-HT1A Receptor Sites)
readout-type: pKi
// pKi here means minus log10 of the molar concentration (mol/L)

(Q) Could you share what pKi was measured for O=C(CCN1CCN(c2ncccn2)CC1)NC12CC3CC(CC(C3)C1)C2 [Example 1] , tested on 5-HT1A serotonin receptor subtype (Rattus norvegicus, UniProt P19327)?
(A) 6.89

(Q) Could you share what pKi was measured for COc1ccccc1N1CCN(CCC(=O)NC23CC4CC(CC(C4)C2)C3)CC1 [Example 2] , tested on 5-HT1A serotonin receptor subtype (Rattus norvegicus, UniProt P19327)?
(A) 8.05
